system: ginsenoside glycosidases from A. niger; assay: Hydrolysis of ginsenosides with crude ginsenoside glycosidases from A. niger, products measured by TLC; assay type: biochemical, Aspergillus niger; details: hydrolysis of Rb1; pH 5.0, 30°C.
RESULT_TYPE: effect of metal ions on the enzyme reaction

- [Cu+2]: inhibit the reaction
- [Pb+2]: inhibit the reaction

====

system: ginsenoside glycosidases from A. niger; assay: Hydrolysis of ginsenosides with crude ginsenoside glycosidases from A. niger, products measured by TLC; assay type: biochemical, Aspergillus niger; conditions: pH 5, 30° C., 18 hours
Here the recorded Percentage of aglycone in the reaction product is given for each entry.
Give the value in % but do not write % after it.

- CC(C)=CCC[C@](C)(O[C@@H]1O[C@H](CO)[C@@H](O)[C@H](O)[C@H]1O)[C@H]1CC[C@]2(C)[C@@H]1[C@H](O)C[C@@H]1[C@@]3(C)CC[C@H](O[C@@H]4O[C@H](CO)[C@@H](O)[C@H](O)[C@H]4O[C@@H]4O[C@H](CO)[C@@H](O)[C@H](O)[C@H]4O)C(C)(C)[C@@H]3CC[C@]12C [Rd, ginsenoside Rd]: 5

With those in mind, consider the next compound.
[ask] Quick one: give measured Percentage of aglycone in the reaction product for CC(C)=CCC[C@](C)(O)[C@H]1CC[C@]2(C)[C@@H]1[C@H](O)C[C@@H]1[C@@]3(C)CC[C@H](O[C@@H]4O[C@H](CO)[C@@H](O)[C@H](O)[C@H]4O[C@@H]4O[C@H](CO)[C@@H](O)[C@H](O)[C@H]4O)C(C)(C)[C@@H]3CC[C@]12C [Rg3, ginsenoside Rg3]
[reply] 17

====

system: ginsenoside glycosidases from A. oryzae; test: Hydrolysis of ginsenosides with crude ginsenoside glycosidases from A. oryzae, TLC; format: biochemical, Aspergillus oryzae; conditions: pH 5.0, 30° C., 18 hours
RESULT_TYPE: Percentage of aglycone in the reaction product (%)
Give the value in % but do not write % after it.

[ask] Quick one: give measured Percentage of aglycone in the reaction product for CC(C)=CCC[C@](C)(O[C@@H]1O[C@H](CO[C@@H]2OC[C@H](O)[C@H](O)[C@H]2O)[C@@H](O)[C@H](O)[C@H]1O)[C@H]1CC[C@]2(C)[C@@H]1[C@H](O)C[C@@H]1[C@@]3(C)CC[C@H](O[C@@H]4O[C@H](CO)[C@@H](O)[C@H](O)[C@H]4O[C@@H]4O[C@H](CO)[C@@H](O)[C@H](O)[C@H]4O)C(C)(C)[C@@H]3CC[C@]12C [Rb2, ginsenoside Rb2]
[reply] 3

====

Here the recorded Percentage of Rh2 in the reaction product is given for each entry.
test system: ginsenoside glycosidases from A. niger; assay: Hydrolysis of ginsenosides with crude ginsenoside glycosidases from A. niger, products measured by TLC; format: biochemical, Aspergillus niger; settings: pH 5, 30° C., 18 hours

• CC(C)=CCC[C@](C)(O)[C@H]1CC[C@]2(C)[C@@H]1[C@H](O)C[C@@H]1[C@@]3(C)CC[C@H](O[C@@H]4O[C@H](CO)[C@@H](O)[C@H](O)[C@H]4O[C@@H]4O[C@H](CO)[C@@H](O)[C@H](O)[C@H]4O)C(C)(C)[C@@H]3CC[C@]12C [Rg3, ginsenoside Rg3] = 53%
• CC(C)=CCC[C@](C)(O[C@@H]1O[C@H](CO)[C@@H](O)[C@H](O)[C@H]1O)[C@H]1CC[C@]2(C)[C@@H]1[C@H](O)C[C@@H]1[C@@]3(C)CC[C@H](O[C@@H]4O[C@H](CO)[C@@H](O)[C@H](O)[C@H]4O[C@@H]4O[C@H](CO)[C@@H](O)[C@H](O)[C@H]4O)C(C)(C)[C@@H]3CC[C@]12C [Rd, ginsenoside Rd] = 5%
• CC(C)=CCC[C@](C)(O[C@@H]1O[C@H](CO[C@@H]2O[C@@H](CO)[C@H](O)[C@H]2O)[C@@H](O)[C@H](O)[C@H]1O)[C@H]1CC[C@]2(C)[C@@H]1[C@H](O)C[C@@H]1[C@@]3(C)CC[C@H](O[C@@H]4O[C@H](CO)[C@@H](O)[C@H](O)[C@H]4O[C@@H]4O[C@H](CO)[C@@H](O)[C@H](O)[C@H]4O)C(C)(C)[C@@H]3CC[C@]12C [Rc, ginsenoside Rc] = 2%

With those in mind, consider the next compound.
[ask] Quick one: give measured Percentage of Rh2 in the reaction product for CC(C)=CCC[C@](C)(O[C@@H]1O[C@H](CO[C@@H]2O[C@H](CO)[C@@H](O)[C@H](O)[C@H]2O)[C@@H](O)[C@H](O)[C@H]1O)[C@H]1CC[C@]2(C)[C@@H]1[C@H](O)C[C@@H]1[C@@]3(C)CC[C@H](O[C@@H]4O[C@H](CO)[C@@H](O)[C@H](O)[C@H]4O[C@@H]4O[C@H](CO)[C@@H](O)[C@H](O)[C@H]4O)C(C)(C)[C@@H]3CC[C@]12C [Rb1, ginsenoside Rb1]
[reply] 5%
